- procedure-summary: Inhibition of […] urease using urea as substrate preincubated for 5 min before substrate addition measured after 10 min
property-measured: IC50 (µM)
Respond numerically; units are µM and should not be typed.

Lookup result for NC(N)=S [THIOUREA] ; measured IC50: 50.1

Lookup result for COc1ccc(NC(=S)N/N=C2\C(=O)Nc3ccc([N+](=O)[O-])cc32)c(OC)c1 ; measured IC50: 27.9

Lookup result for O=C1Nc2ccc([N+](=O)[O-])cc2/C1=N/NC(=S)Nc1ccc(I)cc1 ; measured IC50: 0.901

Lookup result for CCCCCCNC(=S)N/N=C1\C(=O)Nc2ccc([N+](=O)[O-])cc21 ; measured IC50: 0.44

---

- Tested on: Candida albicans
- procedure-summary: Antifungal activity against Candida albicans at 200 ug/ml after 7 days
- Format: functional
- run-parameters: 168 h
For each record, write down the corresponding inhibition at 200 µg/mL.
Respond numerically; units are % and should not be typed.

Lookup result for O=C1Nc2ccc([N+](=O)[O-])cc2/C1=N/NC(=S)Nc1ccc(I)cc1 ; measured inhibition at 200 µg/mL: 0

Lookup result for CCCCCCNC(=S)N/N=C1\C(=O)Nc2ccc([N+](=O)[O-])cc21 ; measured inhibition at 200 µg/mL: 0

Lookup result for COc1ccc(OC)c(NC(=S)N/N=C2\C(=O)Nc3ccc([N+](=O)[O-])cc32)c1 ; measured inhibition at 200 µg/mL: 0

Lookup result for O=C1Nc2ccc([N+](=O)[O-])cc2/C1=N/NC(=S)Nc1ccc(F)cc1 ; measured inhibition at 200 µg/mL: 0

Lookup result for Cc1cccc(NC(=S)N/N=C2\C(=O)Nc3ccc([N+](=O)[O-])cc32)c1 ; measured inhibition at 200 µg/mL: 0

Lookup result for C=CCNC(=S)N/N=C1\C(=O)Nc2ccc([N+](=O)[O-])cc21 ; measured inhibition at 200 µg/mL: 0

Lookup result for O=C1Nc2ccc([N+](=O)[O-])cc2/C1=N/NC(=S)Nc1ccccc1 ; measured inhibition at 200 µg/mL: 0

Lookup result for N#Cc1cccc(NC(=S)N/N=C2\C(=O)Nc3ccc([N+](=O)[O-])cc32)c1 ; measured inhibition at 200 µg/mL: 0

Lookup result for COc1ccc(NC(=S)N/N=C2\C(=O)Nc3ccc([N+](=O)[O-])cc32)c(OC)c1 ; measured inhibition at 200 µg/mL: 0

Lookup result for COc1ccc(NC(=S)N/N=C2\C(=O)Nc3ccc([N+](=O)[O-])cc32)cc1 ; measured inhibition at 200 µg/mL: 0

---

- System: Lemna aequinoctialis
- procedure-summary: Phytotoxicity against Lemna aequinoctialis assessed as growth inhibition at 100 ug/ml
- Format: functional
- run-parameters: read-out: GI
property-measured: inhibition of growth at 100 µg/mL (%)
Respond numerically; units are % and should not be typed.

Form field inhibition of growth at 100 µg/mL for item C=CCNC(=S)N/N=C1\C(=O)Nc2ccc([N+](=O)[O-])cc21 on Lemna aequinoctialis: 35

Form field inhibition of growth at 100 µg/mL for item O=C1Nc2ccc([N+](=O)[O-])cc2/C1=N/NC(=S)Nc1ccc(F)cc1 on Lemna aequinoctialis: 15

Form field inhibition of growth at 100 µg/mL for item CCCCCCNC(=S)N/N=C1\C(=O)Nc2ccc([N+](=O)[O-])cc21 on Lemna aequinoctialis: 35
